assay: Half life in C57BL/6 mouse at 20 mg/kg, ip by LC-MS analysis; format: ADME, organism-based; settings: in vivo
assay metric: half-life (h)
One number for each entry, in h.

For record O=C(O)C1C(c2ccccc2)C(C(=O)Oc2cccc3ccccc23)C1c1ccccc1 (racemic) the listed half-life is 3

====

molecular target: Fatty acid-binding protein, heart (Homo sapiens, UniProt P05413); assay: Displacement of DAUDA from recombinant human N-terminal His-tagged FABP3 expressed in Escherichia coli BL21(DE3) after 20 mins by fluorescence assay; conditions: read-out: Ki
Sequence (P05413 whole entry): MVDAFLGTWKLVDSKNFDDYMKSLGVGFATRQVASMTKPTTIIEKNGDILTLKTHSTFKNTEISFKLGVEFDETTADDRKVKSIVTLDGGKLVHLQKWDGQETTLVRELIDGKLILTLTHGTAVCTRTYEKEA
For each of the compounds below, state its pKi.
One number for each entry, as −log10 of the molar value.

Solved cases (2 shown):
1. O=C(O)[C@H]1[C@H](c2ccccc2)[C@H](C(=O)Oc2cccc3ccccc23)[C@H]1c1ccccc1 : 5.55
2. O=C(O)[C@H]1[C@H](c2ccccc2)[C@H](C(=O)Oc2cc(Cl)c(Cl)cc2Cl)[C@H]1c1ccccc1 : 5.53

For record O=C(O)[C@H]1[C@H](c2ccc(O)cc2)[C@H](C(=O)Oc2cccc3ccccc23)[C@H]1c1ccc(O)cc1 (racemic) the listed pKi is 5.64

====

molecular target: Fatty acid-binding protein, brain (Homo sapiens); test: Displacement of ANS from recombinant human N-terminal His-tagged FABP7 expressed in Escherichia coli BL21(DE3) after 20 mins by fluorescence assay; conditions: read-out: Ki
Sequence (O15540 whole entry): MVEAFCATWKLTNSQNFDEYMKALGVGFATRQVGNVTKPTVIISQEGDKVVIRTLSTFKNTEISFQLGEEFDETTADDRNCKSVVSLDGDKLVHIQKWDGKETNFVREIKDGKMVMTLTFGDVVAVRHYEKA
For each of the compounds below, state its pKi.
One number for each entry, as −log10 of the molar value.

1) COc1ccccc1[C@H]1[C@H](C(=O)O)[C@H](c2ccccc2OC)[C@H]1C(=O)O[C@@H]1CCCC[C@H]1c1ccccc1 : 6.40

Let us examine a further case.
For record `O=C(O)[C@H]1[C@H](c2ccccc2)[C@H](C(=O)Oc2ccccc2-c2ccccc2)[C@H]1c1ccccc1` the listed pKi is 6.46

====

molecular target: Fatty acid-binding protein 5 (Homo sapiens); test: Displacement of DAUDA from recombinant human N-terminal His-tagged FABP5 expressed in Escherichia coli BL21(DE3) after 20 mins by fluorescence assay; conditions: read-out: Ki
Sequence (Q01469 whole entry): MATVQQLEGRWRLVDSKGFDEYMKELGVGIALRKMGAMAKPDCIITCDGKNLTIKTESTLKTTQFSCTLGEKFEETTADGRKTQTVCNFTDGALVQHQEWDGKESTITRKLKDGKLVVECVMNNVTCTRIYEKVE
pKi: −log10 of the molar value.
For each of the compounds below, state its pKi.

1. O=C(O)[C@H]1[C@H](c2ccccc2)[C@@H](C(=O)Nc2nc(-c3ccc4c(c3)CCCC4)cs2)[C@H]1c1ccccc1 : < 5.00
2. O=C(O)[C@H]1[C@H](c2ccccc2Cl)[C@H](C(=O)O[C@@H]2CCCC[C@H]2c2ccccc2)[C@H]1c1ccccc1Cl (racemic) : 5.77
3. COc1ccccc1[C@H]1[C@H](C(=O)O)[C@H](c2ccccc2OC)[C@H]1C(=O)Oc1cccc2ncccc12 : 5.41

Record pKi for all entries; do not skip any.
1. O=C(O)[C@H]1[C@H](c2ccc(O)cc2)[C@H](C(=O)Oc2cccc3ccccc23)[C@H]1c1ccc(O)cc1 (racemic)
2. O=C(O)[C@H]1[C@H](c2ccccc2)[C@H](C(=O)OCC(F)(F)F)[C@H]1c1ccccc1
3. COc1ccc([C@H]2[C@H](C(=O)O)[C@H](c3ccc(OC)c(OC)c3)[C@H]2C(=O)O)cc1OC
4. O=C(OCc1ccccc1)[C@H]1[C@H](c2ccccc2)[C@H](C(=O)OCc2ccccc2)[C@H]1c1ccccc1

["< 5.00", "< 5.00", "< 5.00", "< 5.00"]

====

target: Fatty acid-binding protein 5 (Homo sapiens); test: Displacement of DAUDA from recombinant human N-terminal His-tagged FABP5 expressed in Escherichia coli BL21(DE3) after 20 mins by fluorescence assay; conditions: read-out: Ki
For each of the molecules below, state its Ki.

1) O=C(OCC1CCOCC1)[C@H]1[C@H](c2ccccc2)[C@H](C(=O)OCC2CCOCC2)[C@H]1c1ccccc1 : > 10 µM
2) C#Cc1cccc(OC(=O)[C@H]2[C@@H](c3ccccc3)[C@H](C(=O)O)[C@@H]2c2ccccc2)c1 (racemic) : 0.89 µM
3) COc1ccc(COC(=O)[C@H]2[C@H](c3ccccc3)[C@H](C(=O)OCc3ccc(OC)cc3)[C@H]2c2ccccc2)cc1 : > 10 µM
4) O=C(O)[C@H]1[C@H](c2ccccc2[N+](=O)[O-])[C@H](C(=O)O[C@@H]2CCCC[C@H]2c2ccccc2)[C@H]1c1ccccc1[N+](=O)[O-] : > 10 µM
5) O=C(O)[C@H]1[C@H](c2ccccc2)[C@H](C(=O)Nc2nc(-c3ccc4c(c3)CCCC4)cs2)[C@H]1c1ccccc1 : > 10 µM
6) O=C(O)[C@H]1[C@H](c2ccccc2)[C@H](C(=O)O)[C@H]1c1ccccc1 : > 10 µM
7) O=C(O)[C@H]1[C@H](c2c(Cl)cccc2Cl)[C@H](C(=O)O[C@@H]2CCCC[C@H]2c2ccccc2)[C@H]1c1c(Cl)cccc1Cl : 1.23 µM
8) O=C(O)[C@H]1[C@H](c2ccccc2[N+](=O)[O-])[C@H](C(=O)Oc2cccc3ccccc23)[C@H]1c1ccccc1[N+](=O)[O-] : > 10 µM

Record Ki for all entries; do not skip any.
1. O=C(OCc1ccc(F)cc1)[C@H]1[C@H](c2ccccc2)[C@H](C(=O)OCc2ccc(F)cc2)[C@H]1c1ccccc1
2. COc1cc([C@H]2[C@H](C(=O)O)[C@H](c3ccc(O)c(OC)c3)[C@H]2C(=O)O)ccc1O
3. O=C(O)[C@H]1[C@H](c2ccccc2)[C@H](C(=O)OCc2ccccc2)[C@H]1c1ccccc1

["> 10 µM", "> 10 µM", "3.81 µM"]
